- STUDY_TARGET: T1, EsCas13d, nuclease-dead (Eubacterium siraeum, UniProt B0MS50, R295A;H300A;R849A;H854A)
- T1 sequence: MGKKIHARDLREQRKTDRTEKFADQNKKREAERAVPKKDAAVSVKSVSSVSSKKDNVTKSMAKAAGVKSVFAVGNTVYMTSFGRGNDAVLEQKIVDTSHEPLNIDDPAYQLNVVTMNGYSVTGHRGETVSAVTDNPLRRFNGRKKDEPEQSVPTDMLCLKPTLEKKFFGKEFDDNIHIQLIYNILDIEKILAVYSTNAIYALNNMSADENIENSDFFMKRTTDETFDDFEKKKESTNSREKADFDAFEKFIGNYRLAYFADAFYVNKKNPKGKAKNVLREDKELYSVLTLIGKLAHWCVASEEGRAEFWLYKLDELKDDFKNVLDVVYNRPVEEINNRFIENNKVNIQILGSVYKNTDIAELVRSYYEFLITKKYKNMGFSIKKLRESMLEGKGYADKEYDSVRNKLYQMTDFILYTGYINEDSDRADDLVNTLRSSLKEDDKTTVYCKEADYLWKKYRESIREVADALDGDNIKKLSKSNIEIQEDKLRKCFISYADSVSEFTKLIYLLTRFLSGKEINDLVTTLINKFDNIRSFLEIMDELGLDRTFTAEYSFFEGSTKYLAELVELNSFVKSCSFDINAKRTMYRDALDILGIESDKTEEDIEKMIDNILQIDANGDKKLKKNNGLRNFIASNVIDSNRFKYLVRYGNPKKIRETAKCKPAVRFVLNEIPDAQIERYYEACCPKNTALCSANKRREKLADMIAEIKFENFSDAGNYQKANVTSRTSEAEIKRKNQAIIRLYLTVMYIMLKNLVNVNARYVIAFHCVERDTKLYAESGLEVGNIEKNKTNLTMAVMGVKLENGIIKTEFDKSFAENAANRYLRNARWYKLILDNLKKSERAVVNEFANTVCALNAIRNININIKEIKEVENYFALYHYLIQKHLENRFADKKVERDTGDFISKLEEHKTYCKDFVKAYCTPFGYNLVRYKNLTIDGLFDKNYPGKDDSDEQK
- ASSAY_PROTOCOL: crRNA (strand 1, pre-loaded); Mg2+; 40 mM Tris-HCl pH 7.5, 150 mM NaCl, 6 mM MgCl2, 1 mM DTT, 0.1% Tween-20, 0.2 mg/ml BSA; 25 C; 10 min per concentration, then washed
- APPLIED_CONDITIONS: tags: His6-TwinStrep-SUMO cleaved; N-terminal SNAP kept (SNAP-Surface 488); label: 3' end held by stalled T7 RNA polymerase
Reported values of Kd for individual entries
MEASUREMENT_KIND: Kd (nM)

>>> recorded_value("target 1 MT 5'PFS GGC 3'PFS AGG (mixed) RNA 1: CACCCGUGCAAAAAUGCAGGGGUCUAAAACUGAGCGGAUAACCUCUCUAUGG RNA 2: GGGAAUGGAUCCACAUCUACGAAUUCGGCCCAUAGAGAGGUUAUCCGCUCAAGGAGAUCGGAAGAGCACACGU")
33.5
>>> recorded_value("target 2 MT 5'PFS GGG 3'PFS CAG (mixed) RNA 1: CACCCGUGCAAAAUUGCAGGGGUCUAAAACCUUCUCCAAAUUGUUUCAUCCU RNA 2: GGGAAUGGAUCCACAUCUACGAAUUCGGGAGGAUGAAACAAUUUGGAGAAGCAGAGAUCGGAAGAGCACACGU")
9
>>> recorded_value("target 3 insC 3' of 22,insG 3' of 5 (mixed) RNA 1: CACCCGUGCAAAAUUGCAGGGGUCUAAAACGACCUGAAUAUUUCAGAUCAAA RNA 2: GGGAAUGGAUCCACAUCUACGAAUUCGUUUCUUGAUCUGAAAUAUUCAGGGUCUGCAGAUCGGAAGAGCACACGU")
93.5
>>> recorded_value("target 1 complement block 4-9 (mixed) RNA 1: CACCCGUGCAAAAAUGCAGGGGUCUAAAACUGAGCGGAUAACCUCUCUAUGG RNA 2: GGGAAUGGAUCCACAUCUACGAAUUCGUACCAUAGAGAGGUUUAGGCGUCACCGAGAUCGGAAGAGCACACGU")
7.99
>>> recorded_value("target 1 U19A,C21U (mixed) RNA 1: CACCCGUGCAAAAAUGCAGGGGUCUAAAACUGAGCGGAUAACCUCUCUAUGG RNA 2: GGGAAUGGAUCCACAUCUACGAAUUCGUACUAAAGAGAGGUUAUCCGCUCACCGAGAUCGGAAGAGCACACGU")
10.3
>>> recorded_value("target 1 insU 3' of 20,insG 3' of 18 (mixed) RNA 1: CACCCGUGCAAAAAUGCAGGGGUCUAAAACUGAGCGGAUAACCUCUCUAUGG RNA 2: GGGAAUGGAUCCACAUCUACGAAUUCGUACCAUUAGGAGAGGUUAUCCGCUCACCGAGAUCGGAAGAGCACACGU")
99
>>> recorded_value("target 1 A20C,C22U (mixed) RNA 1: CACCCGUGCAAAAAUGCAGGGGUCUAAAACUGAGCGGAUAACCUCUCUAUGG RNA 2: GGGAAUGGAUCCACAUCUACGAAUUCGUAUCCUAGAGAGGUUAUCCGCUCACCGAGAUCGGAAGAGCACACGU")
49
>>> recorded_value("target 2 MT 5'PFS AAC 3'PFS UUU (mixed) RNA 1: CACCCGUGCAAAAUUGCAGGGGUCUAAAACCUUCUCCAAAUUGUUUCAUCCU RNA 2: GGGAAUGGAUCCACAUCUACGAAUUCAACAGGAUGAAACAAUUUGGAGAAGUUUAGAUCGGAAGAGCACACGU")
7.1
